Can you tell me AC50 for the items I'm about to list?
# ASSAY_COMMENT: reduction of Shn3 3'UTR-driven luciferase in osteoblasts – cell-based, Clone20 osteoblasts, firefly luciferase, cherry-picked, dose response (AID 624132);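 also: firefly luciferase luminescence from reporter carrying the Shn3 3'UTR in osteoblasts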
# Format: functional
Active and inactive are the calls of the source.

Ask: Tell me the measured AC50 of O=[N+]([O-])c1cc(S(=O)(=O)C(F)(F)F)ccc1Sc1nc2ccccc2s1 , please.
Result: 2450 nM (active)

Ask: # get_value(readout='AC50', item= CC(C)Cn1c(N)c(C(=O)COC(=O)CC23CC4CC(CC(C4)C2)C3)c(=O)n(C)c1=O )
Result: 1510 nM (active)

Ask: Field request: AC50 | item: CN(C)CC(C(=O)c1ccccc1)c1ccccc1 (centres undefined)
Result: 2800 nM (active)

Ask: Request the reported AC50 associated with Cc1ccc(S(=O)(=O)Nc2cccc3ncccc23)s1
Result: 3850 nM (active)

---

# SYSTEM_TESTED: Corticotropin-releasing factor receptor 2/Corticotropin-releasing factor-binding protein (Homo sapiens, UniProt P24387+Q13324)
# Sequence (Q13324 whole entry): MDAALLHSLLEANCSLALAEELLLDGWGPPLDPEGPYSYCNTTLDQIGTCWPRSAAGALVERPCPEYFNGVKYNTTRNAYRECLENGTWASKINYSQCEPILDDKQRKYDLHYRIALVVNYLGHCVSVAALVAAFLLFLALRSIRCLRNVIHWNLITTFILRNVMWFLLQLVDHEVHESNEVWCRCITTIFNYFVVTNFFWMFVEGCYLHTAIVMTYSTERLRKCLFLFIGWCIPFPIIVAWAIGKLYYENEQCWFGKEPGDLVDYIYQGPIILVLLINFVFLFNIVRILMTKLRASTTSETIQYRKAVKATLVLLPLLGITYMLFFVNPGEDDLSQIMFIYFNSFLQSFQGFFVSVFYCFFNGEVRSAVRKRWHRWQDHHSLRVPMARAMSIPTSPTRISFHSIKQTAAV
# Sequence (P24387 whole entry): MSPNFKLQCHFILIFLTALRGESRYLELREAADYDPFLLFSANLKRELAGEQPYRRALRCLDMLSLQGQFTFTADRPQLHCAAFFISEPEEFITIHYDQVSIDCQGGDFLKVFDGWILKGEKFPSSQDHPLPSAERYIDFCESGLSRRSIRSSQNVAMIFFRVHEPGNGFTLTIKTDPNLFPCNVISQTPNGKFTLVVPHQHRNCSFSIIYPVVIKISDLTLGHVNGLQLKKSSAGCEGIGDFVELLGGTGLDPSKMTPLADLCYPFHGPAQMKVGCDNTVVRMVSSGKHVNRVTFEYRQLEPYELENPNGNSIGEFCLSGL
# ASSAY_COMMENT: activators of CRF receptor 2 with binding protein – uHTS hits, confirmation (AID 602473)
# Assay type: functional
# MEASUREMENT_PARAMETERS: read-out: EC50_Mean
Calls of active or inactive are those of the source.
// classify into 1 (active), 0 (inactive)

Ask: Status in this test for CC(C)(C)n1nc2c(c1NC(=O)Cc1ccccc1)CS(=O)(=O)C2 ?
Result: 0

Ask: Field: outcome | Entry: Cc1cccc2cc(C#N)c(N3CCN(C)CC3)nc12
Result: 0

Ask: So what was the verdict on Cc1ccc(O)c(NC(=S)NC(=O)COc2ccc(Br)cc2)c1 in this test?
Result: 1

Ask: Kindly provide the recorded test outcome for the following molecule: Cn1cc(C(=O)c2ccccc2)c2ccccc21
Result: 0

Ask: Hi, do you know how Nc1ccc2c(c1)C(=NO)c1ccccc1-2 came out in this test?
Result: 0

Ask: Field: outcome | Entry: Cc1ccc(Sc2c(C=O)c3ccccc3n2C)cc1
Result: 0

Ask: Which outcome did this test record for the molecule O=c1[nH]c(=O)n(-c2ccccc2)c2c1C(C(F)(F)F)(C(F)(F)F)NC(CCC1CCCCC1)=N2 ?
Result: 1

Ask: How did this test come out for CSCCC(NC(=O)c1ccco1)C(=O)OCc1cc([N+](=O)[O-])cc2c1OCOC2 (stereo not given) ?
Result: 1

Ask: Give the logged outcome of this assay for the following molecule: CCCCOC(=O)Oc1ccc2c(=O)c(Oc3cccc(C)c3)coc2c1
Result: 0

Ask: Which outcome was entered for the molecule Oc1nc(-c2ccccc2)n(-c2ccc(Cl)cc2)n1 in this test?
Result: 0

---

# SYSTEM_TESTED: Corticotropin-releasing factor receptor 2/Corticotropin-releasing factor-binding protein (Homo sapiens, UniProt P24387+Q13324)
# ASSAY_COMMENT: Dose Response confirmation of uHTS hits for small molecule antagonists of the CRF-binding protein and CRF-R2 receptor complex.
# Assay type: functional
# MEASUREMENT_PARAMETERS: read-out: IC50_Mean
Active and inactive are the calls of the source.
Reply using exactly one outcome from yes (1) (active), no (0) (inactive)

Ask: Hi, do you know how Cc1ccc(Sc2c(C=O)c3ccccc3n2C)cc1 came out in this test?
Result: no (0)

Ask: Short answer needed: outcome of this test for Cn1cc(C(=O)c2ccccc2)c2ccccc21 ?
Result: no (0)

Ask: Query: recorded result category for COC(=O)C1CC(Cl)CN1c1ncc(C(F)(F)F)cc1Cl (stereo unspecified) in this test
Result: no (0)

Ask: Would you mind telling me which call this test gave O=C(c1ccc([N+](=O)[O-])cc1)N(Cc1ccccc1)Cc1ccccc1 ?
Result: yes (1)

Ask: Hi, sorry to bother you, what did the test record for Nc1ccc2c(c1)C(=NO)c1ccccc1-2 ?
Result: no (0)

Ask: Outcome? Cc1ccccc1-n1ncc2c(SCC(=O)N3c4ccccc4CC3C)ncnc21 (stereo unspecified)
Result: yes (1)

Ask: What outcome does the record of this test show for CC(C)(C)n1nc2c(c1NC(=O)Cc1ccccc1)CS(=O)(=O)C2 ?
Result: no (0)

Ask: Query: recorded result category for Cc1cccc2cc(C#N)c(N3CCN(C)CC3)nc12 in this test
Result: no (0)

Ask: Give the logged outcome of this assay for the following molecule: O=C(c1ccco1)N1N=C(c2cccs2)CC1c1ccccc1O (stereo unspecified)
Result: yes (1)

Ask: Hi team, can someone confirm the assay call for Cc1ccc(NC(=O)CSC2=C(C#N)C(c3ccco3)CC(=O)N2)cc1 (stereo unspecified) ?
Result: no (0)

Ask: Can you look up the reported call for CCCCOC(=O)Oc1ccc2c(=O)c(Oc3cccc(C)c3)coc2c1 for me?
Result: no (0)

---

# SYSTEM_TESTED: Voltage-gated N-type calcium channel alpha-1B subunit/Amyloid beta A4 precursor protein-binding family A member 1 (Homo sapiens, UniProt Q00975+Q02410)
# Sequence (Q00975 whole entry): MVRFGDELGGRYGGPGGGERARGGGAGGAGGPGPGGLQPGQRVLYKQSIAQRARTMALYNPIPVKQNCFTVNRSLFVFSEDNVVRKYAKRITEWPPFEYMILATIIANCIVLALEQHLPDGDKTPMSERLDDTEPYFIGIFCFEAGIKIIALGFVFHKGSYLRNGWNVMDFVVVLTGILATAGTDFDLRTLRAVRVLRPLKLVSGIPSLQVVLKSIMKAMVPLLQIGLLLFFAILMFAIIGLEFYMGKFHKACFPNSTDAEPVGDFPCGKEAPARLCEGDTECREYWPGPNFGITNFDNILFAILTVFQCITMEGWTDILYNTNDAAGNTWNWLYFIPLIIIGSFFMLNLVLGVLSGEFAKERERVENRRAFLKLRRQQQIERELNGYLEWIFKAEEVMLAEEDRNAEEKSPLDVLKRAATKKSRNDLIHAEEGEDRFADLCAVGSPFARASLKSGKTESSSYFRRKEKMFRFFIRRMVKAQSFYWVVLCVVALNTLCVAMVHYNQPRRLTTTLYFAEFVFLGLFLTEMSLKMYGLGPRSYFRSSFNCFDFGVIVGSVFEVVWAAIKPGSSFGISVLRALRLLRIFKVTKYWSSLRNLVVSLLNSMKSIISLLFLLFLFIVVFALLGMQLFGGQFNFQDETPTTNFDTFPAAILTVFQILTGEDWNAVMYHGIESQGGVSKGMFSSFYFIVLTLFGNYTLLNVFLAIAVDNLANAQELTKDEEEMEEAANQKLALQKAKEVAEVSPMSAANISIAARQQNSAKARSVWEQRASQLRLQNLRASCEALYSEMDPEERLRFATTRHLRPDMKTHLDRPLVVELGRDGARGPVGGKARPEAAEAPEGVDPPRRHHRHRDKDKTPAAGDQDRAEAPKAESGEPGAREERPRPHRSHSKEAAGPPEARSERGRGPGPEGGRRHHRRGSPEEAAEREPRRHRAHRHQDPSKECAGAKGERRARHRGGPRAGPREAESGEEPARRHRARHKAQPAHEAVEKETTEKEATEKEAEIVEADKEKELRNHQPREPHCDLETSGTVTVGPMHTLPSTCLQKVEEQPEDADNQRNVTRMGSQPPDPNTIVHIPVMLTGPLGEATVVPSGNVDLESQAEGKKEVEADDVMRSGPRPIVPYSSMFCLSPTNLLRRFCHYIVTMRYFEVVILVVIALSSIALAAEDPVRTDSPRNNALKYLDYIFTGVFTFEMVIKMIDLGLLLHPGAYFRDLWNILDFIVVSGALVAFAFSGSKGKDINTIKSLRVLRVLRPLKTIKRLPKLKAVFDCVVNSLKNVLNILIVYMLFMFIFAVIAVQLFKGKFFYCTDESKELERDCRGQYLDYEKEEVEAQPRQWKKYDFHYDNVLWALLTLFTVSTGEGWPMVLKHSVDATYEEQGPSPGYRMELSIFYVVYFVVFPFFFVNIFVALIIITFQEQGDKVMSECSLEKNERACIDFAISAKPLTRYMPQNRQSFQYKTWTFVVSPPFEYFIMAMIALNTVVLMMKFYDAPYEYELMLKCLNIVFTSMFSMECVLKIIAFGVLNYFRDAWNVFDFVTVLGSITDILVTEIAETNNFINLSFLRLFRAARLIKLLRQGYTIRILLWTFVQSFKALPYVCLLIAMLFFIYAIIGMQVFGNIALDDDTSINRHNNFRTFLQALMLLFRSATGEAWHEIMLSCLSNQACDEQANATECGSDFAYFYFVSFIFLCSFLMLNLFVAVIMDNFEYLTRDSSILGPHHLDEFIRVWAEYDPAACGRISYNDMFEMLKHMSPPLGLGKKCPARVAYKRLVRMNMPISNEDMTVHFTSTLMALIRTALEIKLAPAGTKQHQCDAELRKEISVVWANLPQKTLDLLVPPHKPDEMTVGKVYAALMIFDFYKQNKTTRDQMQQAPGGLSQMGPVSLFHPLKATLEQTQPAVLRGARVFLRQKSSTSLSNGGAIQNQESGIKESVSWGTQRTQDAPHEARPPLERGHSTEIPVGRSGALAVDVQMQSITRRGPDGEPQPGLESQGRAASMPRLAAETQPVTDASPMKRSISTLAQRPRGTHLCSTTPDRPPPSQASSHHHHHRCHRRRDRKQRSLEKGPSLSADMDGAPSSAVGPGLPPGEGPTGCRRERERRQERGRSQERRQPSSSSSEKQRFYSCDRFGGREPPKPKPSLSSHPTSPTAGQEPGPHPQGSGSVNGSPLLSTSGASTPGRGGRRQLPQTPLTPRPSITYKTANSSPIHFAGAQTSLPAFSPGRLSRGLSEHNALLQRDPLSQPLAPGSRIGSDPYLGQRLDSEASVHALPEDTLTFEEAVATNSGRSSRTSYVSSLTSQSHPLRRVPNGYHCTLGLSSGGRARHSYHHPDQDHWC
# Sequence (Q02410 whole entry): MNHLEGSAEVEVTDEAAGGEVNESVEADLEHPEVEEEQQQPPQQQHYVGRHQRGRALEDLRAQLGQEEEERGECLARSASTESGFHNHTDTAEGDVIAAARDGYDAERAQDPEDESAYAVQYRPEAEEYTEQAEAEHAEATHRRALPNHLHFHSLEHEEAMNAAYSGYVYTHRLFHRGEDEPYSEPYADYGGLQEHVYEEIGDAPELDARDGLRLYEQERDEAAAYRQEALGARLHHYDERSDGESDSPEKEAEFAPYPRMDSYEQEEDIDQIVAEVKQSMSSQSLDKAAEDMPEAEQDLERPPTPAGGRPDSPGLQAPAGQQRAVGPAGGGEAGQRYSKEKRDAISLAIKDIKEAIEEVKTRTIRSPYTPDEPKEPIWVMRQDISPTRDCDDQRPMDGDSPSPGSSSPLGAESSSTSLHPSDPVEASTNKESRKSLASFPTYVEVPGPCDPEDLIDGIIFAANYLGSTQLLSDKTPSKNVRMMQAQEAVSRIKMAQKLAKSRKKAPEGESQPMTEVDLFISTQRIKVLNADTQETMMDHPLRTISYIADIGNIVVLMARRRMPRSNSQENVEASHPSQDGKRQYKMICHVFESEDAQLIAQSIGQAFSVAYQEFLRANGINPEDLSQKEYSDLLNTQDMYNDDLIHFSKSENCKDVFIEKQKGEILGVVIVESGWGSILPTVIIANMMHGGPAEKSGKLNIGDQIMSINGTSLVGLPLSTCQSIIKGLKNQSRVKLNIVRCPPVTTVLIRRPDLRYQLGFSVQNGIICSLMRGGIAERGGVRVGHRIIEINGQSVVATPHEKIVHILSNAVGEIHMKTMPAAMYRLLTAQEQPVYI
# Assay type: protein assay
Calls of active or inactive are those of the source.
Can you tell me IC50 for the items I'm about to list?

Ask: Request the reported IC50 associated with COc1cccc2c1NC(C(=O)O)C1CC=CC21 (stereo not given)
Result: 13.2 µM (active)

Ask: For the compound CCCc1cc(=O)oc2cc(OCC(=O)Nc3ccc(S(N)(=O)=O)cc3)ccc12 , what IC50 is on record?
Result: 14.2 µM (active)

Ask: Can you look up the measured IC50 of O=C(N/N=C/c1ccc(F)cc1)c1cc(-c2ccco2)nc2ccccc12 for me?
Result: 8.83 µM (active)

Ask: Report IC50 for N#Cc1nc(-c2ccc(OCc3ccc(Cl)cc3)cc2)oc1N1CCC(C(N)=O)CC1 please.
Result: 3.78 µM (active)

Ask: Please look up its IC50: O=C(Nc1ccc(S(=O)(=O)N2CCOCC2)cc1)c1ccc(O)nc1
Result: 7.16 µM (active)

---

# SYSTEM_TESTED: Heat shock factor protein 1 (Mus musculus)
# Sequence (P38532 whole entry): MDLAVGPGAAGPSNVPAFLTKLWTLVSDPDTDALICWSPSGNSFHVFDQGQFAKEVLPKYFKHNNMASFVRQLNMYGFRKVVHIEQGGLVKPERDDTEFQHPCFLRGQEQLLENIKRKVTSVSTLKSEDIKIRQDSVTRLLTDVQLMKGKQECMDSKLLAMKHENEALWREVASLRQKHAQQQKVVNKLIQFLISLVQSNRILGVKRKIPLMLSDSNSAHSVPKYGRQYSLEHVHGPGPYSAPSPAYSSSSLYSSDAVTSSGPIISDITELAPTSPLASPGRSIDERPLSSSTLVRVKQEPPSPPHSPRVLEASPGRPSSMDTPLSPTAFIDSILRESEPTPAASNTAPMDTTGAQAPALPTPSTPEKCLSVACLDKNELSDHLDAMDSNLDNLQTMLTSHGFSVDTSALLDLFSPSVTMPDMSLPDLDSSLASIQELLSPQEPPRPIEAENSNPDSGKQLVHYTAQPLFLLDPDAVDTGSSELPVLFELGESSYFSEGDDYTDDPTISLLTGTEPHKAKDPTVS
# ASSAY_COMMENT: decrease of HSF1-responsive luciferase luminescence – cell-based, NIH3T3, dose retest, confirmation (AID 2382);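 also: NIH3T3 fibroblasts with HSF1-driven luciferase reporter stressed by proteasome inhibitor MG132; luminescence from HSF1-driven luciferase expression after 8 hours of MG132 stress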
# Format: functional
Activity calls are given as the source filed them.
METRIC: EC50

Ask: Form field: EC50 recorded for CC(C)CC(=O)Nc1c2c(nn1-c1ccc(F)cc1)C[S+]([O-])C2 (configuration not stated) with Heat shock factor protein 1 (Mus musculus) (enter value)
Result: > 195 µM (not active)

Ask: Could you share what EC50 was measured for CSc1ccc(CN(C)Cc2cc(=O)oc3c(C)c(C)ccc23)cc1 , tested on Heat shock factor protein 1 (Mus musculus)?
Result: > 195 µM (not active)

Ask: What reported EC50 corresponds to Cc1nc2c(sc3nc(N4CCOCC4)c4c(c32)CC(C)(C)OC4)c(-c2ccc(Cl)cc2)c1C(=O)O on Heat shock factor protein 1 (Mus musculus)?
Result: > 195 µM (not active)

Ask: Requested read-out EC50, target or system Heat shock factor protein 1 (Mus musculus), entry CCCCc1[nH]nc2c1/C(=N/OCC)CC(C)(C)C2
Result: > 195 µM (not active)

Ask: Form: Entry = O=C(NNc1nc2ccccc2s1)Nc1ccccc1 | System = Heat shock factor protein 1 (Mus musculus) | EC50 = ____
Result: > 195 µM (not active)

Ask: Lab note: need EC50 for N#CC1=C(N)Oc2cc(N)ccc2C1c1ccccc1Cl (configuration not stated) on Heat shock factor protein 1 (Mus musculus), anyone have it?
Result: > 195 µM (not active)

Ask: Enter reported EC50 observed with Heat shock factor protein 1 (Mus musculus) for O=C(CCl)/N=c1\sccn1Cc1ccc(Cl)cc1Cl
Result: 0.361 µM (active)

Ask: Test system Heat shock factor protein 1 (Mus musculus); read-out EC50; what value for O=C(COc1ccccc1C(=O)O)Nc1ccc(SC(F)F)cc1 ?
Result: > 195 µM (not active)

Ask: Item: C=CCNC(=S)NNC(=O)c1cc(-c2cccnc2)nc2ccccc12 Test system: Heat shock factor protein 1 (Mus musculus) Read-out: EC50 Value: ?
Result: > 195 µM (not active)

Ask: # get_value(readout= EC50, system= Heat shock factor protein 1 (Mus musculus)) for O=C(CCl)NC(Cc1ccccc1)c1ccccc1 (configuration not stated)
Result: 17.1 µM (active)

Ask: # query: EC50 | item CCc1ccc(S(=O)(=O)/N=C2\C=C(Nc3ccc(O)cc3)C(=O)c3ccccc32)cc1 | system: Heat shock factor protein 1 (Mus musculus)
Result: 1.16 µM (active)

Ask: Lookup: EC50 / Heat shock factor protein 1 (Mus musculus) / CCCCOc1ccc(C2C(C(=O)c3ccc(C)o3)=C(O)C(=O)N2Cc2ccco2)cc1 (configuration not stated)
Result: 46.6 µM (active)
